- Tested on: HIV-1 CI#17 clinical isolate (clade B)
- EXPERIMENT DESCRIPTION: HIV-1 CI#17 infection of PBMCs, p24
- Assay type: cell-based
- ASSAY SETUP: PBMC, average 2 donors
ENDPOINT LABEL: IC90 (nM)
Answer with a number only, understood to be in nM.

Req: Requested field: IC90. Item: 281D4: anti-CXCR4 Nanobody, SEQ ID NO: 7 (protein, Nanobody Sequence) VHH: EVQLVESGGGLVQAGGSLRLSCAASGGTFNNYAMGWFRRAPGKEREFVAAISRSGVRTGVSALYGDSVKDRFTISRDNAKNTLYLQMNKMKPEDTAVYTCAASAIGSGALRRFEYDSSGQGTQVTVSS
Resp: 33

Req: Now consider 283F1: anti-CXCR4 Nanobody, SEQ ID NO: 12 (protein, Nanobody Sequence) VHH: EVQLVESGGGLVQAGGSLRLSCVASVNIFGSIAMAWYRQAPGKQRNLVASISSGGRINYADSRKGRFTISRDNTKNTVHLQMNSLEPEDTAVYYCAAGRIGQRTLTFTPDYWGQGTQVTVSS .
Resp: 9.1

Req: Now consider 281A6: anti-CXCR4 Nanobody, SEQ ID NO: 8 (protein, Nanobody Sequence) VHH: EVQLVESGGGLVQTGGSLRLSCAASGGTFNNYAMGWFRRAPGKEREFVAAISRSGVRTGVSALYGDSVKDRFTISRDNAKNTLYLQMNKMKPEDTAVYTCAASAIGSGALRRFEYDSSGQGTQVTVSS .
Resp: 61

Values from patent US10273305B2
